Assignment: determine reported pIC50 for the given molecules.
assay_comment: Anti-HIV activity by its ability to inhibit the replication of HIV-1 strain A17 variant (Y181C,K103N) in peripheral blood mononuclear cells (PBMC)
Format: functional, Homo sapiens
Numbers only, as −log10 of the molar value.

smi: Cc1cn([C@H]2C[C@H](N=[N+]=[N-])[C@@H](CO)O2)c(=O)[nH]c1=O
measured_result: 8.40

// input: 2 molecules below; output: pIC50 for each
1. S=C(NCCC1=CCCCC1)Nc1ccc(Br)cn1
2. S=C(NCCC1=CCCCC1)Nc1ccc(Cl)cn1

Result:
1: 4.73; 2: 4.52

* * *

assay_comment: Anti-HIV activity by its ability to inhibit the replication of HIV-1 strain A17 (Y181C) in peripheral blood mononuclear cells (PBMC)
Format: functional
setup_conditions: Homo sapiens
endpoint: pIC50
Answers are plain numbers, as −log10 of the molar value.

Previously resolved entries follow.
smi: FC(F)(F)c1ccc(/N=C(\S)NCCC2=CCCCC2)nc1
endpoint: pIC50
measured_result: 6.52
//
smi: Cc1cn([C@H]2C[C@H](N=[N+]=[N-])[C@@H](CO)O2)c(=O)[nH]c1=O
endpoint: pIC50
measured_result: 8.22
//
smi: CC(C)Nc1cccnc1N1CCN(C(=O)c2cc3cc(NS(C)(=O)=O)ccc3[nH]2)CC1
endpoint: pIC50
measured_result: 4.30

Parameters: items (list). Returns: pIC50 for each item.
1. S=C(NCCc1ccccn1)Nc1ccc(Br)cn1
2. S=C(NCCC1=CCCCC1)Nc1ccc(Cl)cn1

Result:
1: 6.30; 2: 7.17

* * *

target_of_assay: Human immunodeficiency virus type 1 reverse transcriptase (Human immunodeficiency virus 1, UniProt Q72547)
assay_comment: Inhibitory activity against recombinant HIV-1 reverse transcriptase (rRT)
endpoint: pIC50
One number for each entry, as −log10 of the molar value.

Worked cases, answers included:
smi: S=C(NCCC1=CCCCC1)Nc1ccc(Cl)cn1
measured_result: 6.30
--
smi: FC(F)(F)c1ccc(/N=C(\S)NCCC2=CCCCC2)nc1
measured_result: 5.40

The record that follows has no pIC50 shown yet.
Problem: What value of pIC50 has been recorded for this entry: `S=C(NCCC1=CCCCC1)Nc1ccc(Br)cn1`
Result: 6.40

* * *

assay_comment: Anti-HIV activity by its ability to inhibit the replication of HIV-1 strain HTLV IIIB in peripheral blood mononuclear cells (PBMC)
Assay type: functional
setup_conditions: Homo sapiens
endpoint: IC50 (nM)
Numbers only, in nM.

# annotated cases, reported IC50 shown
smi: Cc1ccnc2c1NC(=O)c1cccnc1N2C1CC1
measured_result: 34
--
smi: CC(C)Nc1cccnc1N1CCN(C(=O)c2cc3cc(NS(C)(=O)=O)ccc3[nH]2)CC1
measured_result: 9

Lab note: each compound below needs its IC50 filled in.
1. FC(F)(F)c1ccc(/N=C(\S)NCCC2=CCCCC2)nc1
2. S=C(NCCc1ccccn1)Nc1ccc(Br)cn1
3. S=C(NCCC1=CCCCC1)Nc1ccc(Cl)cn1
4. S=C(NCCC1=CCCCC1)Nc1ccc(Br)cn1

Result:
1: 79; 2: 7; 3: 3; 4: 3

* * *

assay_comment: Anti-HIV activity by its ability to inhibit the replication of HIV-1 strain A17 variant (Y181C,K103N) in peripheral blood mononuclear cells (PBMC)
Format: functional, Homo sapiens
endpoint: IC50

Below, each entry is followed by its recorded IC50 result.
compound: FC(F)(F)c1ccc(/N=C(\S)NCCC2=CCCCC2)nc1
measured_result: > 100 µM

compound: Cc1ccnc2c1NC(=O)c1cccnc1N2C1CC1 [NEVIRAPINE]
measured_result: > 100 µM

compound: S=C(NCCc1ccccn1)Nc1ccc(Br)cn1 [TROVIRDINE]
measured_result: > 100 µM

Proceed to the following item.
Problem: # input compound: CC(C)Nc1cccnc1N1CCN(C(=O)c2cc3cc(NS(C)(=O)=O)ccc3[nH]2)CC1 [DELAVIRDINE] ; wanted: its IC50
Result: > 100 µM
